Assay: Maximum tolerated dose of TPT in mice
Details: mouse, in vivo, intravenous, 5 consecutive days, authors' previous study (data not shown)

Smiles string	MTD at 5 days, mg/kg/day
CC[C@@]1(O)C(=O)OCc2c1cc1n(c2=O)Cc2cc3c(CN(C)C)c(O)ccc3nc2-1	2

* * *

Assay: Pharmacokinetics of unencapsulated topotecan in plasma, tumor and BM-ISF of ES-2 tumor bearing mice
Format: in vivo, BALB/c nude mice
Settings: BALB/c nude, mouse, iv; unencapsulated topotecan, BM-ISF, single i.v. 2 mg/kg, ES-2 tumor bearing mice

Smiles string	Unit abbrev	AUC(0-inf)
CC[C@@]1(O)C(=O)OCc2c1cc1n(c2=O)Cc2cc3c(CN(C)C)c(O)ccc3nc2-1	ng·h/mL	822
